Where do these numbers come from? They come from PubChem BioAssay AID1963973.

- Tested on: 883617-216-R-J1-PDC tumor spheroids, viability
- measurement_description: Anticancer human tumor 883617-216-R-J1-PDC patient-derived bladder carcinoma cell line growth inhibition [PI3K]
- conditions_used: second compound 0.316 µM; first compound 0.0316 µM; stronger effect = lower value; spheroids with HUVEC and MSC
property_name: viability, T/C

compound="C#Cc1c(F)ccc2cc(O)cc(-c3ncc4c(N5CC6CCC(C5)N6)nc(OCC56CCCN5CC(F)C6)nc4c3F)c12 (configuration not stated) + COc1c(OCCCN2CCOCC2)ccc2c3n(c(=NC(=O)c4cnc(N)nc4)nc12)CCN3" test_value=5.31%
compound="CNC(=O)c1ccc(N2C(=S)N(c3ccc(C#N)c(C(F)(F)F)c3)C(=O)C2(C)C)cc1F + COc1c(OCCCN2CCOCC2)ccc2c3n(c(=NC(=O)c4cnc(N)nc4)nc12)CCN3" test_value=10.4%
compound="Cn1nccc1Nc1nccc(-c2ccn(C(CO)c3ccc(Cl)c(F)c3)c(=O)c2)n1 (configuration not stated) + COc1c(OCCCN2CCOCC2)ccc2c3n(c(=NC(=O)c4cnc(N)nc4)nc12)CCN3" test_value=5.61%
compound="Cn1ncc(Cl)c1-c1cc(C(=O)NC(CN)Cc2cccc(F)c2)sc1Cl (configuration not stated) + CC(Nc1ncnc2nc[nH]c12)c1cc2cccc(Cl)c2c(=O)n1-c1ccccc1" test_value=89%
compound="CC(=O)c1c(C)c2cnc(Nc3ccc(N4CCNCC4)cn3)nc2n(C2CCCC2)c1=O + COc1c(OCCCN2CCOCC2)ccc2c3n(c(=NC(=O)c4cnc(N)nc4)nc12)CCN3" test_value=4.31%
compound="CNC(=O)c1ccc(N2C(=S)N(c3ccc(C#N)c(C(F)(F)F)c3)C(=O)C2(C)C)cc1F + CC(Nc1ccc2c(c1)OCCn1cc(N3C(=O)OCC3C(F)F)nc1-2)C(N)=O" test_value=20.5%
compound="C#Cc1c(F)ccc2cc(O)cc(-c3ncc4c(N5CC6CCC(C5)N6)nc(OCC56CCCN5CC(F)C6)nc4c3F)c12 (configuration not stated) + CC(Nc1ncnc2nc[nH]c12)c1cc2cccc(Cl)c2c(=O)n1-c1ccccc1" test_value=77.6%

###

pIC50 values by entry
- Tested on: 883617-216-R-J1-PDC tumor spheroids, viability
- measurement_description: Anticancer human tumor 883617-216-R-J1-PDC cell line growth inhibition [PI3K];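 also: spheroids exposed to agents for 7 days before the viability read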
- conditions_used: curve of first compound; second compound 0.0316 µM; spheroids with HUVEC and MSC
pIC50: −log10 of the molar value.
property_name: pIC50

compound="Cn1ncc(Cl)c1-c1cc(C(=O)NC(CN)Cc2cccc(F)c2)sc1Cl (stereo not given) + COc1c(OCCCN2CCOCC2)ccc2c3n(c(=NC(=O)c4cnc(N)nc4)nc12)CCN3" test_value="> 7.50"
compound="CC1(C)CCC(Nc2ncc(C(F)(F)F)c(-c3c[nH]c4c(P(C)(C)=O)c(C#N)ccc34)n2)CN1 (stereo not given) + CC(Nc1ncnc2nc[nH]c12)c1cc2cccc(Cl)c2c(=O)n1-c1ccccc1" test_value="> 7.50"
compound="Cn1ncc(Cl)c1-c1cc(C(=O)NC(CN)Cc2cccc(F)c2)sc1Cl (stereo not given) + Cc1nc(NC(=O)N2CCCC2C(N)=O)sc1-c1ccnc(C(C)(C)C(F)(F)F)c1" test_value=6.60
compound="Cn1ncc(Cl)c1-c1cc(C(=O)NC(CN)Cc2cccc(F)c2)sc1Cl (stereo not given) + CC(Nc1ccc2c(c1)OCCn1cc(N3C(=O)OCC3C(F)F)nc1-2)C(N)=O" test_value=6.65
compound="CCN1CCN(Cc2ccc(Nc3ncc(F)c(-c4cc(F)c5nc(C)n(C(C)C)c5c4)n3)nc2)CC1 + CC(Nc1ncnc2nc[nH]c12)c1cc2cccc(Cl)c2c(=O)n1-c1ccccc1" test_value="< 6.00"
compound="C=CC(=O)N1CCN(c2nc(=O)n(-c3c(C)ccnc3C(C)C)c3nc(-c4c(O)cccc4F)c(F)cc23)C(C)C1 (stereo not given) + CC(Nc1ccc2c(c1)OCCn1cc(N3C(=O)OCC3C(F)F)nc1-2)C(N)=O" test_value="> 7.50"
compound="CNC(=O)c1ccc(N2C(=S)N(c3ccc(C#N)c(C(F)(F)F)c3)C(=O)C2(C)C)cc1F + CC(Nc1ccc2c(c1)OCCn1cc(N3C(=O)OCC3C(F)F)nc1-2)C(N)=O" test_value="< 5.00"
compound="CCN1CCN(Cc2ccc(Nc3ncc(F)c(-c4cc(F)c5nc(C)n(C(C)C)c5c4)n3)nc2)CC1 + COc1c(OCCCN2CCOCC2)ccc2c3n(c(=NC(=O)c4cnc(N)nc4)nc12)CCN3" test_value="> 8.50"
compound="Cn1ncnc1[C@H]1c2n[nH]c(=O)c3cc(F)cc(c23)N[C@@H]1c1ccc(F)cc1 + Cc1nc(NC(=O)N2CCCC2C(N)=O)sc1-c1ccnc(C(C)(C)C(F)(F)F)c1" test_value="< 7.00"
compound="C#Cc1c(F)ccc2cc(O)cc(-c3ncc4c(N5CC6CCC(C5)N6)nc(OCC56CCCN5CC(F)C6)nc4c3F)c12 (stereo not given) + CC(Nc1ncnc2nc[nH]c12)c1cc2cccc(Cl)c2c(=O)n1-c1ccccc1" test_value="< 5.00"
